Sourced from PubChem BioAssay AID1918941

Test system: SW 1271 complex spheroids, viability
ASSAY PROTOCOL: Anticancer human tumor SW 1271 cell line growth inhibition [LSD1];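 note: spheroids exposed to agents for 7 days before luminescence read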;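 for viability, T/C: 100% = DMSO vehicle control viability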
RECORDED CONDITIONS: second compound 10 µM; first compound 1 µM; stronger effect = lower value
Label key: Yes means viability, T/C under 40%; No means viability, T/C of 40% or more.

Would you please look over these solved cases?
# MOLECULE, CLASS LABEL
measured = [
    ("O=C(c1cc(Cc2n[nH]c(=O)c3ccccc23)ccc1F)N1CCN(C(=O)C2CC2)CC1 + NC1CCC(NC2CC2c2ccccc2)CC1", "No"),
    ("Nc1ncn(C2CC(O)C(CO)O2)c(=O)n1 (configuration not stated) + NC1CCC(NC2CC2c2ccccc2)CC1", "No"),
    ("O=C(C=Cn1cnc(-c2cc(C(F)(F)F)cc(C(F)(F)F)c2)n1)NNc1cnccn1 + NC1CCC(NC2CC2c2ccccc2)CC1", "Yes"),
]

Query: Field: below-cutoff. Rule: recorded viability, T/C strictly less than 40%. Subject: CC1COCCN1c1cc(C2(S(C)(=N)=O)CC2)nc(-c2ccnc3[nH]ccc23)n1 (configuration not stated) + NC1CC1c1ccc(-c2cccc(O)c2)cc1
Result: No

Query: Would you kindly repeat that for Nc1ncn(C2CC(O)C(CO)O2)c(=O)n1 (configuration not stated) + NC1CC1c1ccc(-c2cccc(O)c2)cc1 ?
Result: No

Query: Entry O=C(C=Cn1cnc(-c2cc(C(F)(F)F)cc(C(F)(F)F)c2)n1)NNc1cnccn1 + NC1CC1c1ccc(-c2cccc(O)c2)cc1 please
Result: Yes

* * *

Listing of entries alongside the reported viability, T/C.
System: SW 1271 complex spheroids, viability
ASSAY PROTOCOL: Anticancer human tumor SW 1271 cell line growth inhibition [LSD1];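 note: spheroids exposed to agents for 7 days before luminescence read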;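 for viability, T/C: 100% = DMSO vehicle control viability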
RECORDED CONDITIONS: second compound 1 µM; first compound 0.0949 µM; stronger effect = lower value
Unit % implied. Number only.

Some solved cases for reference:
# COMPOUND, VALUE
data = [
    ("COc1cc(C2c3cc4c(cc3C(OC3OC5COC(C)OC5C(O)C3O)C3COC(=O)C23)OCO4)cc(OC)c1O (stereo not drawn) + NC1CC1c1ccc(-c2cccc(O)c2)cc1", 62.9),
    ("Nc1ccccc1NC(=O)c1ccc(CNC(=O)OCc2cccnc2)cc1 + NC1CCC(NC2CC2c2ccccc2)CC1", 67.8),
]

Please turn your attention to the following entry.
Query: Requested field: viability, T/C. Item: Nc1ncn(C2CC(O)C(CO)S2)c(=O)n1 (stereo not drawn) + NC1CC1c1ccc(-c2cccc(O)c2)cc1
Result: 64.4

* * *

Tested on: SW 1271 complex spheroids, viability
ASSAY PROTOCOL: Anticancer human tumor SW 1271 cell line growth inhibition [LSD1];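 note: spheroids exposed to agents for 7 days before luminescence read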
RECORDED CONDITIONS: curve of first compound; second compound 1 µM
QUANTITY: IC50

Look over these answered cases.
# COMPOUND, IC50
data = [
    ("Nc1ccn(C2OC(CO)C(O)C2(F)F)c(=O)n1 (stereo not drawn) + NC1CC1c1ccc(-c2cccc(O)c2)cc1", "> 300 nM"),
    ("Nc1ncn(C2CC(O)C(CO)S2)c(=O)n1 (stereo not drawn) + NC1CC1c1ccc(-c2cccc(O)c2)cc1", "> 300 nM"),
    ("CC(C)CC(NC(=O)C(Cc1ccccc1)NC(=O)c1cnccn1)B(O)O (stereo not drawn) + NC1CCC(NC2CC2c2ccccc2)CC1", "< 0.316 nM"),
    ("CC(C)CC(NC(=O)C(Cc1ccccc1)NC(=O)c1cnccn1)B(O)O (stereo not drawn) + NC1CC1c1ccc(-c2cccc(O)c2)cc1", "< 0.316 nM"),
    ("Nc1ncn(C2CC(O)C(CO)S2)c(=O)n1 (stereo not drawn) + NC1CCC(NC2CC2c2ccccc2)CC1", "> 300 nM"),
    ("NS(=O)(=O)OCC1CC(n2ccc3c(NC4CCc5ccccc54)ncnc32)CC1O (stereo not drawn) + NC1CCC(NC2CC2c2ccccc2)CC1", "> 3000 nM"),
    ("COc1cc(C2c3cc4c(cc3C(OC3OC5COC(C)OC5C(O)C3O)C3COC(=O)C23)OCO4)cc(OC)c1O (stereo not drawn) + NC1CCC(NC2CC2c2ccccc2)CC1", "> 3000 nM"),
]

Please examine the following record next.
Query: Name the reported IC50 value associated with the compound Cn1ncnc1C1c2n[nH]c(=O)c3cc(F)cc(c23)NC1c1ccc(F)cc1 (stereo not drawn) + NC1CC1c1ccc(-c2cccc(O)c2)cc1
Result: > 100 nM

* * *

Tested on: SW 1271 complex spheroids, viability
ASSAY PROTOCOL: Anticancer human tumor SW 1271 cell line growth inhibition [LSD1];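 note: spheroids exposed to agents for 7 days before luminescence read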;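 for viability, T/C: 100% = DMSO vehicle control viability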
RECORDED CONDITIONS: second compound 10 µM; first compound 0.03 µM; stronger effect = lower value
Rule for this label: yes means viability, T/C is less than 70%; no means viability, T/C is at least 70%.

Example entries and their recorded answers appear below.
# COMPOUND, CLASS LABEL
measured = [
    ("COc1cc(C2c3cc4c(cc3C(OC3OC5COC(C)OC5C(O)C3O)C3COC(=O)C23)OCO4)cc(OC)c1O (stereo not given) + NC1CCC(NC2CC2c2ccccc2)CC1", "no"),
    ("COc1cc(C2c3cc4c(cc3C(OC3OC5COC(C)OC5C(O)C3O)C3COC(=O)C23)OCO4)cc(OC)c1O (stereo not given) + NC1CC1c1ccc(-c2cccc(O)c2)cc1", "yes"),
    ("Nc1ccccc1NC(=O)c1ccc(CNC(=O)OCc2cccnc2)cc1 + NC1CC1c1ccc(-c2cccc(O)c2)cc1", "yes"),
]

Query: Is it true that viability, T/C reported for NS(=O)(=O)OCC1CC(n2ccc3c(NC4CCc5ccccc54)ncnc32)CC1O (stereo not given) + NC1CCC(NC2CC2c2ccccc2)CC1 is less than 70%?
Result: no

* * *

System: SW 1271 complex spheroids, viability
ASSAY PROTOCOL: Anticancer human tumor SW 1271 cell line growth inhibition [LSD1];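 note: spheroids exposed to agents for 7 days before luminescence read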
RECORDED CONDITIONS: curve of first compound; second compound 10 µM
pIC50: −log10 of the molar value.
QUANTITY: pIC50

# COMPOUND, pIC50
data = [
    ("Nc1ncn(C2CC(O)C(CO)O2)c(=O)n1 (configuration not stated) + NC1CC1c1ccc(-c2cccc(O)c2)cc1", "< 6.00"),
    ("CC(C)CC(NC(=O)C(Cc1ccccc1)NC(=O)c1cnccn1)B(O)O (configuration not stated) + NC1CC1c1ccc(-c2cccc(O)c2)cc1", "> 9.50"),
    ("COc1cc(C2c3cc4c(cc3C(OC3OC5COC(C)OC5C(O)C3O)C3COC(=O)C23)OCO4)cc(OC)c1O (configuration not stated) + NC1CCC(NC2CC2c2ccccc2)CC1", "< 5.52"),
    ("Nc1ncn(C2CC(O)C(CO)O2)c(=O)n1 (configuration not stated) + NC1CCC(NC2CC2c2ccccc2)CC1", "< 6.00"),
    ("Nc1ccn(C2OC(CO)C(O)C2(F)F)c(=O)n1 (configuration not stated) + NC1CCC(NC2CC2c2ccccc2)CC1", "< 6.52"),
]

Query: Any idea what pIC50 was measured for CC[C@@]1(O)C(=O)OCc2c1cc1n(c2=O)Cc2cc3c(CN(C)C)c(O)ccc3nc2-1 + NC1CCC(NC2CC2c2ccccc2)CC1 ?
Result: < 7.00

Query: Also, Nc1ncn(C2CC(O)C(CO)S2)c(=O)n1 (configuration not stated) + NC1CC1c1ccc(-c2cccc(O)c2)cc1 please.
Result: < 6.52
